Target: CB2-receptor (Homo sapiens, UniProt P34972)
Construct: expressed in transfected cells; host or cells: CHO cells, stably transfected with CB2 cDNA (from IMIBIC) and transiently with CRE-luc
Sequence (P34972 whole entry): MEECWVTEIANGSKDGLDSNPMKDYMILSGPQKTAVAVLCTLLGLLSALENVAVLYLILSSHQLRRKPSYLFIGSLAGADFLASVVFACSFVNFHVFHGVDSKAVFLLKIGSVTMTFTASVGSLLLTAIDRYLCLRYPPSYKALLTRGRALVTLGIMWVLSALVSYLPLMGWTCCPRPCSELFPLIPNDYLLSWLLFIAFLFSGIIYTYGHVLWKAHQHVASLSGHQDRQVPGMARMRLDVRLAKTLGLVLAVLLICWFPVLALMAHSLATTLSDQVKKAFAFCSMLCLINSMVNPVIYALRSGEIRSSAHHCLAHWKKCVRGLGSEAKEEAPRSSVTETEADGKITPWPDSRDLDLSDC
Experiment Summary: Competition binding against [3H]-CP55940, CB2 membranes
Applied Conditions: ratio of Ki values
Selectivity CB2/CB1 under 8 gets Criterion met, anything at or over 8 gets Criterion not met.

Ask: Lab note: confirm whether the reported Selectivity CB2/CB1 for this compound is below 8, equality not counting. compound: C=C(C)[C@@H]1CCC(C)=C[C@H]1c1c(O)cc(CCCCC)c(C(=O)OC2CCCCC2)c1O [CHC (4), cyclohexyl cannabidiolate]
Result: Criterion met

Ask: Below 8 on Selectivity CB2/CB1? Entry C=C(C)[C@@H]1CCC(C)=C[C@H]1c1c(O)cc(CCC)c(C(=O)OCCO)c1O [2-HECBDV (7), 2-hydroxyethyl cannabidivarinolate]
Result: Criterion not met

Ask: Is the reported Selectivity CB2/CB1 for C=C(C)[C@@H]1CCC(C)=C[C@H]1c1c(O)cc(CCCCC)c(C(=O)OCCCCCC)c1O [HC (5), n-hexyl-cannabidiolate] strictly below 8?
Result: Criterion not met

Ask: Regarding C=C(C)[C@@H]1CCC(C)=C[C@H]1c1c(O)cc(CCCCC)c(C(=O)OCCO)c1O [2-HEC (1), 2-hydroxyethyl cannabidiolate] , kindly confirm whether its Selectivity CB2/CB1 is beneath 8.
Result: Criterion not met

Ask: Selectivity CB2/CB1 strictly < 8 for this compound? C=C(C)[C@@H]1CCC(C)=C[C@H]1c1c(O)cc(CCC)c(C(=O)OC2CCCCC2)c1O [CHCBDV (8), cyclohexyl cannabidivarinolate]
Result: Criterion met

Ask: Record C=C(C)[C@@H]1CCC(C)=C[C@H]1c1c(O)cc(CCC)c(C(=O)OCCCCCC)c1O [HCBDV (9), n-hexyl cannabidivarinolate] : is its Selectivity CB2/CB1 strictly below 8?
Result: Criterion met

Ask: Dear colleague, could you confirm whether Selectivity CB2/CB1 of C=C(C)[C@@H]1CCC(C)=C[C@H]1c1c(O)cc(CCCCC)c(C(=O)OCCNS(C)(=O)=O)c1O falls below 8? Thanks.
Result: Criterion not met

====

Target: CB2-receptor (Homo sapiens, UniProt P34972)
Construct: expressed in transfected cells; host or cells: CHO cells, stably transfected with CB2 cDNA (from IMIBIC) and transiently with CRE-luc
Experiment Summary: Competition binding against [3H]-CP55940, CB2 membranes
Applied Conditions: mean ± SEM, n = 3; radioligand [3H]-CP55940
pKi: −log10 of the molar value.
Response key: met means pKi >= 7; not met means pKi < 7.

Ask: Say whether C=C(C)[C@@H]1CCC(C)=C[C@H]1c1c(O)cc(CCC)c(C(=O)OC2CCCCC2)c1O [CHCBDV (8), cyclohexyl cannabidivarinolate] shows pKi of 7 or more.
Result: met

Ask: Test whether the molecule C=C(C)[C@@H]1CCC(C)=C[C@H]1c1c(O)cc(CCCCC)c(C(=O)OC2CCCCC2)c1O [CHC (4), cyclohexyl cannabidiolate] records pKi of 7 or higher.
Result: not met

Ask: Could you verify whether the entry C=C(C)[C@@H]1CCC(C)=C[C@H]1c1c(O)cc(CCC)c(C(=O)OCCO)c1O [2-HECBDV (7), 2-hydroxyethyl cannabidivarinolate] shows pKi of no less than 7?
Result: not met

Ask: Quick check, pKi >= 7? C=C(C)[C@@H]1CCC(C)=C[C@H]1c1c(O)cc(CCC)c(C(=O)OCCCCCC)c1O [HCBDV (9), n-hexyl cannabidivarinolate]
Result: met

Ask: pKi >= 7 for C=C(C)[C@@H]1CCC(C)=C[C@H]1c1c(O)cc(CCCCC)c(C(=O)OCCNS(C)(=O)=O)c1O ?
Result: met
